Measurement Description: Pharmacokinetics in mice
Assay type: in vivo
Condition Set: mouse, plasma, po, 10 mg/kg, p.o. (base form), 10 mg/kg oral gavage, read-out: AUC0-4
Observation Type: AUC(0-t)

Identify measured AUC(0-t) associated with C=CC(=O)Nc1cccc(-c2nc(Nc3cccc(N4CCOCC4)c3)nc3[nH]ncc23)c1
270 ng·h/mL

###

Measurement Description: Microsomal stability
Assay type: in vitro ADME, human
Condition Set: human microsomes
Observation Type: half-life at 1 μM (min)
Kindly answer with a numeric value in min, unit omitted.

In one line, give reported half-life at 1 μM of the entry C=CC(=O)Nc1cccc(-c2nc(Nc3cccc(N4CCOCC4)c3)nc3[nH]ncc23)c1 .
16
